Where a name gives a salt, the structure may show the parent alone.
Quick record: pIC50, Bile salt export pump (Homo sapiens, UniProt O95342).
Numbers only, as −log10 of the molar value.

For each of the compounds below, note its pIC50.
1. O=C(O)CCn1c2c(c3ccccc31)C[C@H](NS(=O)(=O)c1ccc(F)cc1)CC2
2. Fc1ccc([C@@H]2CCNC[C@H]2COc2ccc3c(c2)OCO3)cc1 [PAROXETINE HYDROCHLORIDE]
3. Cc1ccc(C(=O)N2CC3CNCC(C2)O3)cc1NC(=O)CC12CC3CC(CC(C3)C1)C2
4. CCCCNc1cc(C(=O)O)cc(S(N)(=O)=O)c1Oc1ccccc1 [BUMETANIDE]

### Response
1. 4.20
2. 4.16
3. 4.23
4. 3.28

* * *

# test target: Bile salt export pump (Homo sapiens, UniProt O95342)
# Format: ADME
Give log10 IC50 for every item shown.
Values below are the log10 of the recorded IC50, with µM as the unit.

CC(C)C(=O)Nc1ccc([N+](=O)[O-])c(C(F)(F)F)c1 [FLUTAMIDE] ... 1.78
Cc1ccnc2c1NC(=O)c1cccnc1N2C1CC1 ... 2.47
CCCCCC(C)(O)/C=C/[C@@H]1[C@@H](C/C=C\CCCC(=O)O)[C@@H](O)C[C@H]1O (stereo not given in full) ... 2.52
COc1ccc(-n2[nH]c(=O)c3[nH]c4cc(Cl)ccc4c(=O)c3c2=O)c(C)c1 ... 2.69
C1CCC(C(CC2CCCCN2)C2CCCCC2)CC1 (stereo not given) ... 1.16
O=NN(CCCl)C(=O)NCCCl ... 1.99
Cc1ccc(S(=O)(=O)NC(=O)NN2CC3CCCC3C2)cc1 (stereo not given) [GLICLAZIDE] ... 2.77
COc1cc(Nc2ncc(F)c(Nc3ccc4c(n3)NC(=O)C(C)(C)O4)n2)cc(OC)c1OC ... 2.29

Please turn your attention to the following entry.
### Prompt Could you share which log10 IC50 value was measured for CC(COc1ccccc1)NC(C)C(O)c1ccc(O)cc1 (stereo not given) ?
### Response 2.76

* * *

What follows is a record of pIC50 for UniProt:O95342.
pIC50: −log10 of the molar value.

CCC1(c2ccc(N)cc2)CCC(=O)NC1=O (centres undefined) [AMINOGLUTETHIMIDE] ... < 3.00
COc1ccccc1OCC(O)COC(N)=O (centres undefined) ... < 3.00
CC1Cc2ccccc2N1NC(=O)c1ccc(Cl)c(S(N)(=O)=O)c1 (centres undefined) [INDAPAMIDE] ... 3.84

Record pIC50 per entry; entries follow.
1. CCCCNc1ccc(C(=O)OCCN(C)C)cc1
2. O=C(C1CCCCC1)N1CC(=O)N2CCc3ccccc3C2C1 (centres undefined)
3. CC(CCC(=O)O)C1CCC2C3C(=O)CC4CC(=O)CCC4(C)C3CC(=O)C12C (centres undefined)
4. C#C[C@]1(O)CC[C@H]2[C@@H]3CCC4=Cc5oncc5C[C@]4(C)[C@H]3CC[C@@]21C
5. NS(=O)(=O)c1cc(C(=O)O)cc(N2CCCC2)c1Oc1ccccc1 [PIRETANIDE]
6. CC(NC(C)(C)C)C(=O)c1cccc(Cl)c1 (centres undefined)
7. CN(C(=O)CN(CCO)CC(=O)N(C)C(C)(C)Cc1ccccc1)C(C)(C)Cc1ccccc1
8. CCCCNc1ccc(C(=O)OCCOCCOCCOCCOCCOCCOCCOCCOCCOC)cc1 [BENZONATATE]

### Response
[3.29, 4.22, 3.69, "> 5.00", "< 3.10", "< 3.00", "> 5.00", "> 5.00"]

Items follow; give pIC50 for each.
1. Cn1c(=O)c2c(ncn2CC(O)CO)n(C)c1=O (centres undefined)
2. CN(CCOc1ccc(NS(C)(=O)=O)cc1)CCc1ccc(NS(C)(=O)=O)cc1 [DOFETILIDE]
3. CCN(CC)CCOC(=O)C(Cc1cccc2ccccc12)CC1CCCO1 (centres undefined)
4. CCCc1c2oc(C(=O)O)cc(=O)c2cc2c(=O)cc(C(=O)O)n(CC)c12
5. NC(=O)CN1CCCC1=O

### Response
1: < 3.00; 2: 3.15; 3: > 4.96; 4: < 3.00; 5: < 3.00

List pIC50 for every entry below, keeping the order given.
1. CN(C)CCOC(C)(c1ccccc1)c1ccccn1 (centres undefined)
2. O=c1ccc2ccccc2o1
3. CC1=C(C)C(=O)C(C(CCCCCC(=O)O)c2ccccc2)=C(C)C1=O (centres undefined)

### Response
1. < 3.00
2. < 3.00
3. > 4.84

Hi, could you look up pIC50 for each item in my list?
1. O=C1CC2(CCCC2)CC(=O)N1CCCCN1CCN(c2ncccn2)CC1
2. C=CCN1CC[C@]23c4c5ccc(O)c4O[C@H]2C(=O)CC[C@@]3(O)[C@H]1C5
3. O=c1[nH]cc(F)c(=O)[nH]1
4. Clc1ccc(C(c2ccccc2Cl)C(Cl)Cl)cc1 (centres undefined)

### Response
4.22
3.26
< 3.00
> 5.00

The values you see were collected from ChEMBL document CHEMBL4017441.
